# Read-out: Monocyte Chemoattractant Protein-1 (MCP1), CCL2 (gene 6347)
# protocolDescription: BSK_3C_MCP1: BioMAP Diversity Plus: 3C Assay for Monocyte Chemoattractant Protein-1 (MCP1) Biomarker Activity (AID 2283017)
# testSettings: primary human endothelial cells (HUVEC); actives raise or lower the signal
Activity calls are given as the source filed them. Rule for the calls: active = hit-call score of the fitted dose curve at least 0.9, where 1 is the maximum; inactive = score below 0.9.
Just give me one of these, please: active, inactive

Please review the following examples before continuing.
CCC(=O)OCc1ccccc1; inactive
O=[N+]([O-])c1cc(C(F)(F)F)ccc1Cl; inactive
Nc1cc([N+](=O)[O-])ccc1O; inactive
c1ccc2sc(SN(C3CCCCC3)C3CCCCC3)nc2c1; active

stdin: How did this test come out for CCCCCCCCCCCCCCCCCC(=O)OCC(CC)CCCC (stereo unspecified) ?
stdout: inactive

stdin: Please answer likewise for CC(C)(COC(=O)c1ccccc1)COC(=O)c1ccccc1
stdout: active

* * *

# Read-out: Interleukin 17A (IL17A), IL17A (gene 3605)
# protocolDescription: BSK_BT_xIL17A: BioMAP Diversity Plus: BT Assay for Interleukin 17A (IL17A) Biomarker Activity (AID 2284229)
# testSettings: primary human B cells with PBMC
Calls of active or inactive are those of the source. Rule for the calls: active = hit-call score of the fitted dose curve at least 0.9, where 1 is the maximum; inactive = score below 0.9.
Just give me one of these, please: y (active), n (inactive)

CC(C)(COC(=O)c1ccccc1)COC(=O)c1ccccc1; n
C=C(C)C(=O)O[C@H]1C[C@@H]2CC[C@@]1(C)C2(C)C; n

stdin: How did this test come out for O=C1CCCCCCCCCCCCCCO1 ?
stdout: y

stdin: Please answer likewise for Nc1cc([N+](=O)[O-])ccc1Cl
stdout: n

* * *

# Read-out: Collagen IV, COL4A1 (gene 1282)
# protocolDescription: BSK_MyoF_CollagenIV: BioMAP Diversity Plus: MyoF Assay for Collagen IV Biomarker Activity (AID 2284247)
# testSettings: primary human lung fibroblasts
The source made the active and inactive calls. How the source made its calls: active means hit-call score of the fitted dose curve at least 0.9, where 1 is the maximum; inactive means score below 0.9.
outcomeMeasure: AC50

CCCCCCCCC=O; inactive
CNC[C@H](O)c1cccc(O)c1; inactive
CC(=O)Nc1ccccc1O; inactive
CCCCC(CC)COC(=O)/C=C\C(=O)OCC(CC)CCCC (stereo not given); inactive

stdin: Recorded AC50 for CCCCC/C=C/C=C/C=O , please?
stdout: 10.5 µM (active)

stdin: Please answer likewise for CC1COc2ccccc2N1C(=O)C(Cl)Cl (stereo not given)
stdout: 2.33 µM (active)

stdin: Please answer likewise for CC(C)Oc1ccccc1O
stdout: inactive

stdin: Please answer likewise for Cc1ccc(O)c(C(C)(C)C)c1
stdout: inactive

stdin: Please answer likewise for O=C(O)C[C@H](O)C[C@H](O)/C=C/c1c(C2CC2)nc2ccccc2c1-c1ccc(F)cc1
stdout: inactive

stdin: Please answer likewise for O=C(O)c1cn(C2CC2)c2cc(N3CCNCC3)c(F)cc2c1=O
stdout: inactive

* * *

# protocolDescription: ATG_PXRE_CIS: Attagene CIS-FACTORIAL HepG2 Assay for human Pregnane X Receptor Element (PXRE) (AID 2282957)
# testSettings: HepG2 Attagene CIS-FACTORIAL PXRE reporter, mRNA; actives raise or lower the signal
# Description: ATG_CIS is a cell-based, multiplexed-readout assay that uses HepG2, a human liver cell line, with measurements taken at 24 hours after chemical dosing in a 24-well plate.ATG_PXRE_CIS is one of 52 assay component(s) measured or calculated from the ATG_CIS assay. […] This assay endpoint, ATG_PXRE_CIS, was analyzed with bidirectional fitting relative to DMSO as the negative control and baseline of activity. […]
Calls of active or inactive are those of the source. The calls were made as follows: active = hit-call score of the fitted dose curve at least 0.9, where 1 is the maximum; inactive = score below 0.9.
Just give me one of these, please: yes (1) for active, no (0) for inactive

Please review the following examples before continuing.
C=C(C)C(=O)Nc1ccc(Cl)c(Cl)c1; yes (1)
N#Cc1ccccc1; no (0)
Cc1ccc(O)c(C(C)(C)C)c1; yes (1)
CCCCCCCCCC=O; no (0)
[Ca+2]; no (0)
CC(=O)C(C)=O; yes (1)

stdin: How did this test come out for CC(C)[C@H]1CC[C@@H](C)CC1=O ?
stdout: yes (1)

stdin: Please answer likewise for OC1C(O)C(O)C(O)C(O)C1O (stereo not drawn)
stdout: no (0)

stdin: Please answer likewise for CCCCCOC(=O)CCC
stdout: no (0)

stdin: Please answer likewise for Nc1cccc(S(=O)(=O)c2cccc(N)c2)c1
stdout: no (0)

* * *

# protocolDescription: CEETOX_H295R_PROG: CeeTox H295R High-throughput Steroidogenesis Assay for Progesterone (PROG) (AID 2283442)
# testSettings: actives raise or lower the signal
The source made the active and inactive calls. Rule for the calls: active = hit-call score of the fitted dose curve at least 0.9, where 1 is the maximum; inactive = score below 0.9.
Just give me one of these, please: active, inactive

Please review the following examples before continuing.
NC(=O)Nc1ccc(Cl)cc1; inactive
Nc1cc([N+](=O)[O-])ccc1Cl; inactive
c1ccc(CCCc2ccccn2)cc1; active
C#C[C@]1(O)CC[C@H]2[C@@H]3CCC4=Cc5oncc5C[C@]4(C)[C@H]3CC[C@@]21C; active

Consider the record given below.
stdin: How did this test come out for O=C(O)c1ccc([N+](=O)[O-])cc1 ?
stdout: inactive

* * *

# protocolDescription: ATG_SREBP_CIS: Attagene CIS-FACTORIAL HepG2 Assay for human Sterol Regulatory Element Binding (SREBP) (AID 2282962)
# testSettings: HepG2 Attagene cis-factorial SREBP reporter, mRNA; actives raise or lower the signal
Active and inactive are the calls of the source. The calls were made as follows: active = hit-call score of the fitted dose curve at least 0.9, where 1 is the maximum; inactive = score below 0.9.
outcomeMeasure: AC50

COc1ccc(NC(=O)CC(C)=O)cc1; inactive
CCCCCCCCCCCCOCCO; 49.1 µM (active)
CCCCNC(=O)NS(=O)(=O)c1ccc(C)cc1; inactive
NC(=O)NC1NC(=O)NC1=O (stereo not drawn); inactive

stdin: Recorded AC50 for Nc1cc(Cl)c(O)c(Cl)c1 , please?
stdout: 130 µM (active)

stdin: Please answer likewise for C=C(C)C(=O)NCCCN(C)C
stdout: inactive

stdin: Please answer likewise for O=C(O)CCCCCCCC(=O)O
stdout: inactive

stdin: Please answer likewise for COc1c(Cl)c(Cl)c(Cl)c(Cl)c1Cl
stdout: inactive

* * *

# Read-out: Vascular endothelial growth factor receptor 2 (Homo sapiens)
# protocolDescription: BSK_4H_VEGFRII: BioMAP Diversity Plus: 4H Assay for Vascular endothelial growth factor receptor 2 (VEGFR2) Biomarker Activity (AID 2283031)
# testSettings: primary human endothelial cells (HUVEC); actives raise or lower the signal
Activity calls are given as the source filed them. How the source made its calls: active means hit-call score of the fitted dose curve at least 0.9, where 1 is the maximum; inactive means score below 0.9.
Just give me one of these, please: active, inactive

Please review the following examples before continuing.
CCCCCCCCCC=O; inactive
c1ccc2sc(SN(C3CCCCC3)C3CCCCC3)nc2c1; active

stdin: How did this test come out for O=P(c1ccccc1)(c1ccccc1)c1ccccc1 ?
stdout: inactive

stdin: Please answer likewise for CCC(=O)OCc1ccccc1
stdout: inactive

stdin: Please answer likewise for CCCCC/C=C/C=C/C=O
stdout: active

* * *

# protocolDescription: TOX21_p53_BLA_p4_viability: Viability Assessment in the Tox21 HCT-116 p53 Agonism Beta-lactamase Assay, Phase 4 (AID 2283597);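 note: hits lower the luminescence signal meaning cytotoxicity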
Results filed as inconclusive are left out. Calls of active or inactive are those of the source. Rule for the calls: active = hit-call score of the fitted dose curve at least 0.9, where 1 is the maximum; inconclusive = response in the unintended direction; inactive = score below 0.9.
Just give me one of these, please: active, inactive

CC(=O)Nc1ccccc1O; inactive
O=C1C(c2[nH]c3ccc(S(=O)(=O)O)cc3c2O)=Nc2ccc(S(=O)(=O)O)cc21; inactive
COc1ccc(O)cc1; inactive
O=[N+]([O-])c1cc(C(F)(F)F)ccc1Cl; inactive
CCCCCC(CO)CCC (stereo unspecified); inactive

stdin: How did this test come out for O=C=NC1CCC(CC2CCC(N=C=O)CC2)CC1 (stereo unspecified) ?
stdout: inactive

stdin: Please answer likewise for CCCCCCCCCCCCCOS(=O)(=O)O
stdout: active

stdin: Please answer likewise for CCCCC(CC)COCCC#N (stereo unspecified)
stdout: inactive

stdin: Please answer likewise for CCCC(=O)c1cc(O)c(O)cc1O
stdout: inactive

stdin: Please answer likewise for CC(=O)OCCOC(C)=O
stdout: inactive

stdin: Please answer likewise for COC(=O)OC
stdout: inactive

stdin: Please answer likewise for CC(=O)OCC=Cc1ccccc1
stdout: inactive

stdin: Please answer likewise for O=c1[nH]c(=O)n([C@H]2CCCO2)cc1F
stdout: inactive

stdin: Please answer likewise for CCCCN
stdout: inactive

stdin: Please answer likewise for Nc1cc([N+](=O)[O-])ccc1O
stdout: inactive

stdin: Please answer likewise for NC(N)=NC(=O)c1nc(Cl)c(N)nc1N
stdout: inactive

stdin: Please answer likewise for CC(=O)Nc1ccc(CC(=O)O)cc1
stdout: inactive

stdin: Please answer likewise for c1cc(C(c2ccc(OCC3CO3)cc2)c2ccc(OCC3CO3)cc2)ccc1OCC1CO1 (stereo unspecified)
stdout: inactive

stdin: Please answer likewise for CC1CC(OC(=O)c2ccccc2O)CC(C)(C)C1 (stereo unspecified)
stdout: inactive

stdin: Please answer likewise for O=S(=O)(O)c1cccc2c(S(=O)(=O)O)cccc12
stdout: inactive

stdin: Please answer likewise for Clc1ccc(Cl)c(Cl)c1Cl
stdout: inactive

All values here come from PubChem BioAssay (EPA / NIEHS).
